assayProcedure: in vitro
conditionSummary: human, Cytotoxicity IC50 Hela
Protocol: IC50 of these compounds were determined by the MTT assay (see Table 2). The cytotoxic activities were determined using MCF-7, A549, Hela, KB human tumor cells by the MTT colorimetric method. […] Cell growth inhibition was determined by measuring the absorbance (Abs) at λ = 570 nm using a microplate reader and calculated according to the following equation: Growth inhibition = (1 − OD of treated cells/OD of control cells) × 100% (1) […]
propertyMeasured: IC50 (µM)
Give a bare numeral; the unit µM is implied.

Need IC50 of COc1cccc2c1C(=O)c1c(O)c3c(c(O)c1C2=O)C[C@@](O)(C(=O)CO)C[C@@H]3O[C@H]1C[C@H](N)[C@@H](O)[C@H](C)O1 [Epirubicin, reference compound] , thanks.
1.07

----------
Tested on: cervix carcinoma cells (Hela)
assayProcedure: in vitro
conditionSummary: Hela cells, MTT
propertyMeasured: cytotoxic / inhibitory activity against Hela (in words)

{"compound": "COc1cc(OC)c2c(c1O)C(=O)c1sc(C(C)O)cc1C2=O (stereo not drawn)", "system": "cervix carcinoma cells (Hela)", "result": "no inhibitory activities"}
{"compound": "CCc1c(OC)cc2c(c1O)C(=O)C(OC)=CC2=O", "system": "cervix carcinoma cells (Hela)", "result": "no inhibitory activities"}
{"compound": "COc1cc(OC)c2c(c1O)C(=O)C(CC(C)=O)=C(C)C2=O", "system": "cervix carcinoma cells (Hela)", "result": "no inhibitory activities"}

----------
system: α-acetylcholinesterase (AChE) (Homo sapiens, UniProt P22303); note: key: '-' as 'no action'
Sequence (P22303 32-614): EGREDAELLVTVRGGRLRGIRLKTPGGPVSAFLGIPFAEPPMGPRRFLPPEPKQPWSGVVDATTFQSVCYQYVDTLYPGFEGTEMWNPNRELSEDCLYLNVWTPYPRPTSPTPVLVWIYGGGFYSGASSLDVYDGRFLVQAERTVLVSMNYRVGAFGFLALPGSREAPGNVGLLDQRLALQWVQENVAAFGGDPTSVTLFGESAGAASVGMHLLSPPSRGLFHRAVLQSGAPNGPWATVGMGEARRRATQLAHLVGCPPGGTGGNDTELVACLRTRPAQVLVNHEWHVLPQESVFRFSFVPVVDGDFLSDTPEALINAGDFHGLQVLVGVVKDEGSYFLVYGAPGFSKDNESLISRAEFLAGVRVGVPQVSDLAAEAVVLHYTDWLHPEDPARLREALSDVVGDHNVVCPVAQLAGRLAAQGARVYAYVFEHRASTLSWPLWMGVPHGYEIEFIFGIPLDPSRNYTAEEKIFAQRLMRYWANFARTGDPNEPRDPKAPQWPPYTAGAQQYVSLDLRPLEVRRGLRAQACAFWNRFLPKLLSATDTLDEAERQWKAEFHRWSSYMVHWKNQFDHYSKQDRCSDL
assayProcedure: biochemical
Format: biochemical
conditionSummary: phosphate buffer pH 7.0, 37 °C, triplicate
propertyMeasured: Inhibition of AChE IC50

{"compound": "COc1cc(OC)c2c(c1O)C(=O)c1sc(C(C)O)cc1C2=O (stereo not drawn)", "system": "α-acetylcholinesterase (AChE) (Homo sapiens, UniProt P22303)", "result": "-"}
{"compound": "CCc1c(OC)cc2c(c1O)C(=O)C[C@H](O)[C@H]2O", "system": "α-acetylcholinesterase (AChE) (Homo sapiens, UniProt P22303)", "result": "-"}
{"compound": "CC(C)[C@@H](C)/C=C/[C@@H](C)[C@H]1CC[C@@]2(O)C3=CC(=O)[C@@]4(O)C[C@@H](O)CC[C@]4(C)[C@H]3CC[C@]12C", "system": "α-acetylcholinesterase (AChE) (Homo sapiens, UniProt P22303)", "result": "-"}
{"compound": "COc1cc(OC)c2c(c1O)C(=O)C(CC(C)=O)=C(C)C2=O", "system": "α-acetylcholinesterase (AChE) (Homo sapiens, UniProt P22303)", "result": "-"}
{"compound": "CC(C)[C@@H](C)/C=C/[C@@H](C)[C@H]1CC[C@H]2C3=CC(=O)[C@@]4(O)C[C@@H](O)CC[C@]4(C)[C@H]3CC[C@]12C", "system": "α-acetylcholinesterase (AChE) (Homo sapiens, UniProt P22303)", "result": "-"}

Return reported Inhibition of AChE IC50; argument: "CCc1c(OC)cc2c(c1O)C(=O)C(OC)=CC2=O"
-

----------
What IC50 was measured for each of the following?
Write the figure, then the unit, nothing else.

Look up IC50 with UniProtKB P22303 for this compound: COc1cc(OC)c2c(c1O)C(=O)c1cc(C)ncc1C2=O [Compound 3, 8-O-methylbostrycoidin]
6710 nM

Find the measured IC50: item CC(=O)O[C@H]1C[C@H]2[C@H]3[C@H]([C@@H](O)C[C@]2(C)[C@H]1[C@H](C)/C=C/[C@H](C)C(C)C)[C@@]1(C)CC[C@H](O)C[C@@H]1C(=O)[C@@H]3O [Compound 9, NGA0187] , target or system UniProtKB P22303.
1890 nM

Form field - read-out: IC50; system: UniProtKB P22303; submitted item: COC1=CC(=O)c2c(O)c(C)c3c(c2C1=O)O[C@@H](C)C3 [Compound 2, anhydrojavanicin]
2010 nM

----------
Tested on: human breast cancer cells (MCF-7)
assayProcedure: in vitro
conditionSummary: MCF-7 cells, MTT
propertyMeasured: cytotoxic / inhibitory activity against MCF-7 (in words)

{"molecule": "COc1cc(OC)c2c(c1O)C(=O)c1sc(C(C)O)cc1C2=O (stereo not drawn) [Compound 1]", "system": "human breast cancer cells (MCF-7)", "result": "no inhibitory activities"}
{"molecule": "CCc1c(OC)cc2c(c1O)C(=O)C(OC)=CC2=O [Compound 6]", "system": "human breast cancer cells (MCF-7)", "result": "no inhibitory activities"}
{"molecule": "CCc1c(OC)cc2c(c1O)C(=O)C[C@H](O)[C@H]2O [Compound 5, botryosphaerone D]", "system": "human breast cancer cells (MCF-7)", "result": "no inhibitory activities"}
{"molecule": "COC1=CC(=O)c2c(O)c(C)c3c(c2C1=O)O[C@@H](C)C3 [Compound 2, anhydrojavanicin]", "system": "human breast cancer cells (MCF-7)", "result": "no inhibitory activities"}

----------
Test system: lung cancer cells (A549)
conditionSummary: MTT
propertyMeasured: cytotoxic / inhibitory activity against A549 (in words)

{"compound": "COc1cc(OC)c2c(c1O)C(=O)C(CC(C)=O)=C(C)C2=O", "result": "no inhibitory activities"}
{"compound": "COc1cc(OC)c2c(c1O)C(=O)c1cc(C)ncc1C2=O", "result": "no inhibitory activities"}
{"compound": "CC(=O)O[C@H]1C[C@H]2[C@H]3[C@H]([C@@H](O)C[C@]2(C)[C@H]1[C@H](C)/C=C/[C@H](C)C(C)C)[C@@]1(C)CC[C@H](O)C[C@@H]1C(=O)[C@@H]3O", "result": "no inhibitory activities"}
{"compound": "CCc1c(OC)cc2c(c1O)C(=O)C(OC)=CC2=O", "result": "no inhibitory activities"}
{"compound": "CCc1c(OC)cc2c(c1O)C(=O)C[C@H](O)[C@H]2O", "result": "no inhibitory activities"}
{"compound": "COc1cc(OC)c2c(c1O)C(=O)c1sc(C(C)O)cc1C2=O (stereo not drawn)", "result": "no inhibitory activities"}

Field: next compound
// fetch lung cancer cells (A549) cytotoxic / inhibitory activity against A549 (in words) for COC1=CC(=O)c2c(O)c(C)c3c(c2C1=O)O[C@@H](C)C3 [Compound 2, anhydrojavanicin]
no inhibitory activities

----------
System: human breast cancer cells (MCF-7)
assayProcedure: in vitro
conditionSummary: MCF-7 cells, MTT
propertyMeasured: cytotoxic / inhibitory activity against MCF-7 (in words)

{"sampleSmiles": "CC(=O)O[C@H]1C[C@H]2[C@H]3[C@H]([C@@H](O)C[C@]2(C)[C@H]1[C@H](C)/C=C/[C@H](C)C(C)C)[C@@]1(C)CC[C@H](O)C[C@@H]1C(=O)[C@@H]3O", "result": "no inhibitory activities"}
{"sampleSmiles": "COc1cc(OC)c2c(c1O)C(=O)c1cc(C)ncc1C2=O", "result": "no inhibitory activities"}
{"sampleSmiles": "COc1cc(OC)c2c(c1O)C(=O)C(CC(C)=O)=C(C)C2=O", "result": "no inhibitory activities"}
